Target: CB1 receptor (Homo sapiens, UniProt P21554)
Sequence (P21554 whole entry): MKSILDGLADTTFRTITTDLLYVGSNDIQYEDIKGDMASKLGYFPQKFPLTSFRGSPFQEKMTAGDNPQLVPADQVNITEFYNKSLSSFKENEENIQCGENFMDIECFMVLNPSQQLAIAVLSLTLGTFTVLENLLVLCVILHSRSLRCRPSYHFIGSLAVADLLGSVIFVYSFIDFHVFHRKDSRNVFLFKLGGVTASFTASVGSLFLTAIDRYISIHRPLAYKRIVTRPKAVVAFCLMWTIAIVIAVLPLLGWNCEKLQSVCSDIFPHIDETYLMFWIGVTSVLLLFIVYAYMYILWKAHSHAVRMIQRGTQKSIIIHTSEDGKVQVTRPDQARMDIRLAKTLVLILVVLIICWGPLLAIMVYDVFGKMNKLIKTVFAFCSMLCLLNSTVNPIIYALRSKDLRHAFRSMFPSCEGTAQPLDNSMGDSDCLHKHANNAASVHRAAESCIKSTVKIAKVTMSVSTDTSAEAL
Test: Human cannabinoid receptor bonding inhibition test ([3H]CP55940), CB1
Type: binding
Parameters: expressed in transfected cells; membrane fraction
Test Readout: pKi
Interpret pKi as the negative base-10 log of the concentration measured in mol/L.

Q: So what does the record say about pKi for COC(=O)[C@@H](NC(=O)c1cc2c(n(CCCC#N)c1=O)CCCCCC2)C(C)C [Compound I-266] ?
A: 7.92

Q: So what does the record say about pKi for CC(C)(NC(=O)c1cc2c(n(CC3CCCCC3)c1=O)CCCCCC2)C(=O)N1CCC(C(=O)NNS(C)(=O)=O)CC1 [Compound I-606] ?
A: 7.22

Q: So what does the record say about pKi for CC(C)(NC(=O)c1cc2c(n(CC3CCCCC3)c1=O)CCCCCC2)C(=O)N1CCC(C(=O)N2CCCCC2)CC1 [Compound I-601] ?
A: 7.33

Q: So what does the record say about pKi for CC(C)(NC(=O)c1cc2c(n(CC3CCCCC3)c1=O)CCCCCC2)C(=O)Nc1ccc(NS(C)(=O)=O)cc1 [Compound I-533] ?
A: 7.68

Q: So what does the record say about pKi for CCCCn1c2c(cc(C(=O)NC3(CC(=O)O)CCCC3)c1=O)CCCCCC2 [Compound X-235] ?
A: 6.02

Q: So what does the record say about pKi for CCc1c(C)cc(C(=O)N[C@H](C(=O)NC(CO)CO)C(C)(C)C)c(=O)n1CC1CCCCC1 [Compound I-038] ?
A: 8.15

Q: So what does the record say about pKi for CCCCn1c(CCC)c(CC)cc(C(=O)N[C@H](C(=O)OC)C(C)(C)C)c1=O [Compound I-211] ?
A: 8.62

Q: So what does the record say about pKi for CCCCn1c2c(cc(C(=O)NC3CCCCC3)c1=O)CCCCCC2 [Compound 10-035, reference compound] ?
A: 7.72

Q: So what does the record say about pKi for CC(C)NC(=O)NC1CCN(C(=O)C(C)(C)NC(=O)c2cc3c(n(CC4CCCCC4)c2=O)CCCCCC3)CC1 [Compound I-599] ?
A: 7.43

----------
Molecular target: CB2 receptor (Homo sapiens)
Assay: Human cannabinoid receptor bonding inhibition test ([3H]CP55940), CB2
Format: binding
Design: expressed in transfected cells; membrane fraction
Test Readout: Ki (nM)
Give the value in nM but do not write nM after it.

Q: So what does the record say about Ki for CC(C)(NC(=O)c1cc2c(n(CC3CCCCC3)c1=O)CCCCCC2)C(N)=O [Compound I-002] ?
A: 7.1

Q: So what does the record say about Ki for CCS(=O)(=O)NNC(=O)C(C)(C)NC(=O)c1cc2c(n(CC3CCCCC3)c1=O)CCCCCC2 [Compound I-596] ?
A: 22

Q: So what does the record say about Ki for O=C(O)CC1(NC(=O)c2cc3c(n(CC4CCCCC4)c2=O)CCCCCC3)CCCCC1 [II-073] ?
A: 6.2

Q: So what does the record say about Ki for O=C(O)Cc1nsc(NC(=O)c2cc3c(n(CC4CCCCC4)c2=O)CCCCCC3)n1 [Compound X-21] ?
A: 3.3

Q: So what does the record say about Ki for CCc1c(C)cc(C(=O)NC2(C(=O)O)CCCCC2)c(=O)n1Cc1ccc(F)c(F)c1 [XI-027] ?
A: 54

----------
Target: CB2 receptor (Homo sapiens)
Assay: cAMP formation inhibition experiment through a cannabinoid receptor (forskolin stimulation), CB2
Format: cell-based
Design: expressed in transfected cells; host or cells: CHO cells
Would you mind telling me the reported IC50 of each entry?
Give the value in nM but do not write nM after it.

Q: Short answer please: IC50, CB2 receptor (Homo sapiens), entry CCS(=O)(=O)NNC(=O)C(C)(C)NC(=O)c1cc2c(n(CC3CCCCC3)c1=O)CCCCCC2
A: 30

Q: Short answer please: IC50, CB2 receptor (Homo sapiens), entry O=C(NC(C(=O)O)C(F)(F)F)c1cc2c(n(CC3CCCCC3)c1=O)CCCCCC2 (centres unmarked)
A: 27

Q: Short answer please: IC50, CB2 receptor (Homo sapiens), entry CC(=O)N1CCN(C(=O)C(C)(C)NC(=O)c2cc3c(n(CC4CCCCC4)c2=O)CCCCCC3)CC1
A: 27

Q: Short answer please: IC50, CB2 receptor (Homo sapiens), entry C/C=C/C(CC(=O)O)NC(=O)c1cc2c(n(CC3CCCCC3)c1=O)CCCCCC2 (centres unmarked)
A: 4.6

Q: Short answer please: IC50, CB2 receptor (Homo sapiens), entry CCCCC(CC(=O)O)NC(=O)c1cc2c(n(CC3CCCCC3)c1=O)CCCCCC2 (centres unmarked)
A: 40

Q: Short answer please: IC50, CB2 receptor (Homo sapiens), entry O=C(O)Cc1nsc(NC(=O)c2cc3c(n(CC4CCCCC4)c2=O)CCCCCC3)n1
A: 30

Q: Short answer please: IC50, CB2 receptor (Homo sapiens), entry CC(C)(NC(=O)c1cc2c(n(CC3CCCCC3)c1=O)CCCCCC2)C(=O)NCC(N)=O
A: 15

Q: Short answer please: IC50, CB2 receptor (Homo sapiens), entry CCc1c(C)cc(C(=O)NC(CC)(CC)CC(=O)O)c(=O)n1Cc1ccc(F)cc1
A: 30

Q: Short answer please: IC50, CB2 receptor (Homo sapiens), entry CCCCn1c(CCC)c(CC)cc(C(=O)NC2(C(=O)O)CCCCCC2)c1=O
A: 26

Q: Short answer please: IC50, CB2 receptor (Homo sapiens), entry CC(C)(NC(=O)c1cc2c(n(CC3CCCCC3)c1=O)CCCCCC2)C(=O)N1CCC(NS(C)(=O)=O)CC1
A: 2.4

Q: Short answer please: IC50, CB2 receptor (Homo sapiens), entry O=C(O)Cc1cnc(NC(=O)c2cc3c(n(CCCC(F)(F)F)c2=O)CCCCCC3)s1
A: 8.6

----------
Biological target: CB2 receptor (Homo sapiens)
Assay: cAMP formation inhibition experiment through a cannabinoid receptor (forskolin stimulation), CB2
Assay type: cell-based
Parameters: expressed in transfected cells; host or cells: CHO cells
Would you mind telling me the reported IC50 of each entry?
Give the value in nM but do not write nM after it.

Q: So what does the record say about IC50 for CCNC(=O)C1CCCN(C(=O)C(C)(C)NC(=O)c2cc3c(n(CC4CCCCC4)c2=O)CCCCCC3)C1 (stereo not drawn) ?
A: 30

Q: So what does the record say about IC50 for CCCCn1c2c(cc(C(=O)NC(CC)(CC)CC(=O)O)c1=O)CCCCCC2 ?
A: 3

Q: So what does the record say about IC50 for CC(C)(NC(=O)c1cc2c(n(CC3CCCCC3)c1=O)CCCCCC2)C(=O)N1CCC(NS(=O)(=O)C(C)(C)C)CC1 ?
A: 17

Q: So what does the record say about IC50 for CC(C)(CCNC(=O)c1cc2c(n(CC3CCCCC3)c1=O)CCCCCC2)C(=O)O ?
A: 35

Q: So what does the record say about IC50 for CC(C)NC(=O)N1CCN(C(=O)C(C)(C)NC(=O)c2cc3c(n(CC4CCCCC4)c2=O)CCCCCC3)CC1 ?
A: 4.8

Q: So what does the record say about IC50 for CCCCn1c(CCC)c(CC)cc(C(=O)NC2(CC(=O)O)CCCCC2)c1=O ?
A: 9.8

Q: So what does the record say about IC50 for CC(C)CCn1c2c(cc(C(=O)N[C@@H](C(=O)O)c3ccccc3)c1=O)CCCCCC2 ?
A: 5.9

Q: So what does the record say about IC50 for CCc1c(C)cc(C(=O)NC2(C(=O)O)CCCCCCCCC2)c(=O)n1Cc1ccc(F)cc1 ?
A: 35

Q: So what does the record say about IC50 for CNC(=O)CNC(=O)C(C)(C)NC(=O)c1cc2c(n(CC3CCCCC3)c1=O)CCCCCC2 ?
A: 2.4

----------
Target: CB2 receptor (Homo sapiens, UniProt P34972)
Sequence (P34972 whole entry): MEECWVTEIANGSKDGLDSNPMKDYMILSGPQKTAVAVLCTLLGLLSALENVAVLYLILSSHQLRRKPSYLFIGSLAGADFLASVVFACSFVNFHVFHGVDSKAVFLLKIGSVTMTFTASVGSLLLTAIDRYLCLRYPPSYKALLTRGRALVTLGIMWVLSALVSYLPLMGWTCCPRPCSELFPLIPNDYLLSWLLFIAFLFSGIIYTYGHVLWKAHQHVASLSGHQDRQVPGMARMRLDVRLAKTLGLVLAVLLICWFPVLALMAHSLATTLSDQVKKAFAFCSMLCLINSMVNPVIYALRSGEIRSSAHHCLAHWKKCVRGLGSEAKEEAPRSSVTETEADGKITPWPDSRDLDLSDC
Assay: Human cannabinoid receptor bonding inhibition test ([3H]CP55940), CB2
Type: binding
Parameters: expressed in transfected cells; membrane fraction
pKi: −log10 of the molar value.
Test Readout: pKi

Q: Short answer please: pKi, CB2 receptor (Homo sapiens, UniProt P34972), entry CCc1c(C)cc(C(=O)N[C@H](C(=O)NC(CO)CO)C(C)(C)C)c(=O)n1CC1CCCCC1
A: > 8.70

Q: Short answer please: pKi, CB2 receptor (Homo sapiens, UniProt P34972), entry CCOC(=O)C(C)(C)NC(=O)c1cc2c(n(CC3CCCCC3)c1=O)CCCCCC2
A: > 8.70

Q: Short answer please: pKi, CB2 receptor (Homo sapiens, UniProt P34972), entry CCc1c(C)cc(C(=O)N[C@H](C(=O)OC)C(C)C)c(=O)n1CC1CCCCC1
A: > 8.70

----------
Biological target: CB1 receptor (Homo sapiens, UniProt P21554)
Assay: Human cannabinoid receptor bonding inhibition test ([3H]CP55940), CB1
Assay type: binding
Set-up: expressed in transfected cells; membrane fraction
Test Readout: Ki

Q: So what does the record say about Ki for CCc1c(C)cc(C(=O)NC2(C(=O)O)CCCCC2)c(=O)n1Cc1ccc(F)cc1 ?
A: > 2000 nM

Q: So what does the record say about Ki for COC(=O)C(C)(C)NC(=O)c1cc2c(n(CC3CCCCC3)c1=O)CCCCCC2 ?
A: < 2 nM

Q: So what does the record say about Ki for CCc1c(C)cc(C(=O)N[C@H](C(=O)OC)C(C)(C)C)c(=O)n1CC1CCCCC1 ?
A: < 2 nM

Q: So what does the record say about Ki for CCOC(=O)C(C)(C)NC(=O)c1cc2c(n(CC3CCCCC3)c1=O)CCCCCC2 ?
A: < 2 nM

Q: So what does the record say about Ki for CC[C@@H](C)[C@H](NC(=O)c1cc(C)c(C)n(CC2CCCCC2)c1=O)C(=O)OC ?
A: < 2 nM

Q: So what does the record say about Ki for CC(C)(NC(=O)c1cc2c(n(CC3CCCCC3)c1=O)CCCCCC2)C(=O)OCC(O)CO (stereo not shown) ?
A: < 2 nM

Q: So what does the record say about Ki for COCOC(=O)C(C)(C)NC(=O)c1cc2c(n(CC3CCCCC3)c1=O)CCCCCC2 ?
A: < 2 nM

Cited source: patent US8367666B2
